molecular target: OpuAC (isolated SBD of OpuA) (Lactococcus lactis, UniProt Q7DAU8); assay: intrinsic tryptophan fluorescence titration; format: binding
Sequence (Q7DAU8 319-573): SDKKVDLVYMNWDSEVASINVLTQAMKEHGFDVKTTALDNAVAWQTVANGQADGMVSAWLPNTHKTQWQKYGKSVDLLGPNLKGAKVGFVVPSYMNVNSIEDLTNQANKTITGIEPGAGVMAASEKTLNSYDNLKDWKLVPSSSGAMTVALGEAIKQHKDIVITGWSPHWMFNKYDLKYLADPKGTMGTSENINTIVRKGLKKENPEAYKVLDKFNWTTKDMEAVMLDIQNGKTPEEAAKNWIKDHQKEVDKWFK
pKd: −log10 of the molar value.
QUANTITY: pKd

smiles_structure=C[N+](C)(C)CC(=O)[O-] quantity=pKd endpoint_value=5.36
